experiment: Cytotoxicity against human NHFB cells assessed as cell viability at 10 uM after 48 hrs by SRB assay; type: cell-based; conditions: read-out: Activity
Measured viability at 48 h, 10 µM, listed per entry for reference.
Just the number please, in %, no unit attached.

[
  {
    "structureAsSmiles": "O=C1N=C(Nc2ccccc2Cl)S/C1=C/c1ccc(N2CCNCC2)cc1",
    "unitText": "%",
    "viability at 48 h, 10 µM": 99.3
  },
  {
    "structureAsSmiles": "CN1CCN(c2ccc(/C=C3/SC(Nc4ccc(O)cc4)=NC3=O)cc2)CC1",
    "unitText": "%",
    "viability at 48 h, 10 µM": 94.3
  },
  {
    "structureAsSmiles": "O=C1N=C(Nc2ccc(O)cc2)S/C1=C/c1ccc(N2CCOCC2)cc1",
    "unitText": "%",
    "viability at 48 h, 10 µM": 92.8
  },
  {
    "structureAsSmiles": "O=C1N=C(Nc2ccccc2Cl)S/C1=C/c1ccc(N2CCOCC2)cc1",
    "unitText": "%",
    "viability at 48 h, 10 µM": 94.2
  }
]

Read off the recorded viability at 48 h, 10 µM for "Cc1ccccc1NC1=NC(=O)/C(=C\c2ccc(N3CCOCC3)cc2)S1" 80.8

Read off the recorded viability at 48 h, 10 µM for "CN(C)c1ccc(/C=C2/SC(Nc3ccc(Oc4ccccc4)cc3)=NC2=O)cc1" 100

Read off the recorded viability at 48 h, 10 µM for "CCN(CC)c1ccc(/C=C2/SC(Nc3ccccc3)=NC2=O)cc1" 96.9

Read off the recorded viability at 48 h, 10 µM for "Cc1ccccc1/N=C1\NC(=O)/C(=C\c2ccc(N(C)C)cc2)S1" 86.5

----------
test: Cytotoxicity against human NHFB cells assessed as cell viability at 10 uM after 48 hrs by SRB assay; assay type: cell-based; details: read-out: Activity
quantityKind: viability at 48 h, 10 µM (%)
Just the number please, in %, no unit attached.

// worked examples, viability at 48 h, 10 µM included
[
  {
    "structureAsSmiles": "CN1CCN(c2ccc(/C=C3/SC(Nc4ccc(Oc5ccccc5)cc4)=NC3=O)cc2)CC1",
    "quantityKind": "viability at 48 h, 10 µM",
    "unitText": "%",
    "observed": 90.9
  },
  {
    "structureAsSmiles": "O=C1N=C(Nc2ccccc2)S/C1=C/c1ccc(N2CCNCC2)cc1",
    "quantityKind": "viability at 48 h, 10 µM",
    "unitText": "%",
    "observed": 97
  },
  {
    "structureAsSmiles": "CCN(CC)c1ccc(/C=C2/SC(Nc3ccccc3Cl)=NC2=O)cc1",
    "quantityKind": "viability at 48 h, 10 µM",
    "unitText": "%",
    "observed": 85
  }
]

Read off the recorded viability at 48 h, 10 µM for "CN(C)c1ccc(/C=C2/SC(=Nc3ccc(O)cc3)NC2=O)cc1" 96.5

Read off the recorded viability at 48 h, 10 µM for "CN1CCN(c2ccc(/C=C3/SC(Nc4ccccc4)=NC3=O)cc2)CC1" 93.8

----------
assay: Solubility in pH 7.4 buffer after 18 hrs by UV spectroscopy based microSol assay; type: physicochemical; details: pH 7.4 buffer, pH 7.4
quantityKind: solubility at 18 h
Form entry: enter the amount, then its unit.

// worked examples, solubility at 18 h included
[
  {
    "structureAsSmiles": "CN1CCN(c2ccc(/C=C3/SC(Nc4ccc(O)cc4)=NC3=O)cc2)CC1",
    "solubility at 18 h": "0.01 µg/mL"
  },
  {
    "structureAsSmiles": "Cc1ccccc1NC1=NC(=O)/C(=C\\c2ccc(N3CCNCC3)cc2)S1",
    "solubility at 18 h": "3.83 µg/mL"
  },
  {
    "structureAsSmiles": "CN(C)c1ccc(/C=C2/SC(=Nc3ccc(O)cc3)NC2=O)cc1",
    "solubility at 18 h": "0.01 µg/mL"
  }
]

Read off the recorded solubility at 18 h for "Cc1ccccc1/N=C1\NC(=O)/C(=C\c2ccc(N(C)C)cc2)S1" 0.27 µg/mL

Read off the recorded solubility at 18 h for "CN(C)c1ccc(/C=C2/SC(=Nc3ccccc3Cl)NC2=O)cc1" 0.02 µg/mL

Read off the recorded solubility at 18 h for "CCN(CC)c1ccc(/C=C2/SC(Nc3ccccc3C)=NC2=O)cc1" 0.2 µg/mL

----------
Measured log10 of solubility, listed per entry for reference.
assay: Solubility in pH 7.4 buffer after 18 hrs by UV spectroscopy based microSol assay; format: physicochemical; conditions: buffer, pH 7.4, 18 h
Scale: decimal log of solubility, solubility in µg/mL.

[
  {
    "compound": "O=C1N=C(N(c2ccccc2)c2ccccc2)S/C1=C/c1ccc(N2CCNCC2)cc1",
    "log10 of solubility": -0.82
  },
  {
    "compound": "CN(C1=NC(=O)/C(=C\\c2ccc(N3CCNCC3)cc2)S1)c1ccccc1",
    "log10 of solubility": 0.59
  },
  {
    "compound": "CNC(=C[N+](=O)[O-])NCCSCc1ccc(CN(C)C)o1",
    "log10 of solubility": 1.53
  },
  {
    "compound": "CN(C)c1ccc(/C=C2/SC(N(C)c3ccccc3)=NC2=O)cc1",
    "log10 of solubility": -0.30
  },
  {
    "compound": "O=C1N=C(N(c2ccccc2)c2ccccc2)S/C1=C/c1ccc(N2CCOCC2)cc1",
    "log10 of solubility": -2.00
  },
  {
    "compound": "NC(=O)N1c2ccccc2C=Cc2ccccc21 [CARBAMAZEPINE]",
    "log10 of solubility": 1.34
  },
  {
    "compound": "CN1CCN(c2ccc(/C=C3/SC(Nc4ccccc4)=NC3=O)cc2)CC1",
    "log10 of solubility": -0.46
  },
  {
    "compound": "CCN(CC)c1ccc(/C=C2/SC(N(C)c3ccccc3)=NC2=O)cc1",
    "log10 of solubility": -2.00
  }
]

Read off the recorded log10 of solubility for "O=C1N=C(Nc2ccccc2)S/C1=C/c1ccc(N2CCOCC2)cc1" -1.00

Read off the recorded log10 of solubility for "CCN(CC)c1ccc(/C=C2/SC(Nc3ccccc3)=NC2=O)cc1" -1.00

----------
test: Cytotoxicity against human NHFB cells assessed as cell viability at 10 uM after 48 hrs by SRB assay; format: cell-based; conditions: read-out: Activity
quantityKind: viability at 48 h, 10 µM (%)
Just the number please, in %, no unit attached.

[
  {
    "structureAsSmiles": "CCN(CC)c1ccc(/C=C2/SC(Nc3ccc(O)cc3)=NC2=O)cc1",
    "quantityKind": "viability at 48 h, 10 µM",
    "unitText": "%",
    "observed": 93.7
  }
]

Read off the recorded viability at 48 h, 10 µM for "CN(C)c1ccc(/C=C2/SC(=Nc3ccccc3)NC2=O)cc1" 68.3

Read off the recorded viability at 48 h, 10 µM for "O=C1N=C(Nc2ccccc2)S/C1=C/c1ccc(N2CCOCC2)cc1" 97.4

Read off the recorded viability at 48 h, 10 µM for "O=C1N=C(Nc2ccc(Oc3ccccc3)cc2)S/C1=C/c1ccc(N2CCOCC2)cc1" 98

Read off the recorded viability at 48 h, 10 µM for "O=C1N=C(Nc2ccc(Oc3ccccc3)cc2)S/C1=C/c1ccc(N2CCNCC2)cc1" 82.9

Read off the recorded viability at 48 h, 10 µM for "CN1CCN(c2ccc(/C=C3/SC(Nc4ccccc4Cl)=NC3=O)cc2)CC1" 96

Read off the recorded viability at 48 h, 10 µM for "Cc1ccccc1NC1=NC(=O)/C(=C\c2ccc(N3CCNCC3)cc2)S1" 62.8

----------
assay: Solubility in pH 7.4 buffer after 18 hrs by UV spectroscopy based microSol assay; format: physicochemical; conditions: pH 7.4 buffer, pH 7.4
quantityKind: solubility at 18 h (µg/mL)
Just the number please, in µg/mL, no unit attached.

[
  {
    "molecule": "O=C1N=C(Nc2ccccc2Cl)S/C1=C/c1ccc(N2CCNCC2)cc1",
    "solubility at 18 h, µg/mL": 0.14
  },
  {
    "molecule": "O=C1N=C(Nc2ccc(O)cc2)S/C1=C/c1ccc(N2CCOCC2)cc1",
    "solubility at 18 h, µg/mL": 0.19
  },
  {
    "molecule": "CN(C)c1ccc(/C=C2/SC(Nc3ccc(Oc4ccccc4)cc3)=NC2=O)cc1",
    "solubility at 18 h, µg/mL": 0.01
  },
  {
    "molecule": "O=C1N=C(Nc2ccc(O)cc2)S/C1=C/c1ccc(N2CCNCC2)cc1",
    "solubility at 18 h, µg/mL": 13.9
  },
  {
    "molecule": "O=C1N=C(Nc2ccc(Oc3ccccc3)cc2)S/C1=C/c1ccc(N2CCOCC2)cc1",
    "solubility at 18 h, µg/mL": 0.1
  },
  {
    "molecule": "O=C1N=C(Nc2ccccc2Cl)S/C1=C/c1ccc(N2CCOCC2)cc1",
    "solubility at 18 h, µg/mL": 0.05
  }
]

Read off the recorded solubility at 18 h for "CN1CCN(c2ccc(/C=C3/SC(Nc4ccccc4Cl)=NC3=O)cc2)CC1" 0.43

Read off the recorded solubility at 18 h for "O=C1N=C(Nc2ccc(Oc3ccccc3)cc2)S/C1=C/c1ccc(N2CCNCC2)cc1" 0.1

Read off the recorded solubility at 18 h for CCCSc1ccc2nc(NC(=O)OC)[nH]c2c1 [ALBENDAZOLE] 2.3

Read off the recorded solubility at 18 h for "CN1CCN(c2ccc(/C=C3/SC(Nc4ccc(Oc5ccccc5)cc4)=NC3=O)cc2)CC1" 0.1

Read off the recorded solubility at 18 h for "Cc1ccccc1NC1=NC(=O)/C(=C\c2ccc(N3CCOCC3)cc2)S1" 0.78

Read off the recorded solubility at 18 h for "CCN(CC)c1ccc(/C=C2/SC(Nc3ccccc3Cl)=NC2=O)cc1" 0.01

Read off the recorded solubility at 18 h for "Cc1ccccc1NC1=NC(=O)/C(=C\c2ccc(N3CCN(C)CC3)cc2)S1" 0.89

Origin of values: ChEMBL document CHEMBL3399994
